TEST TARGET: h-CA I (Homo sapiens, UniProt P00915)
Sequence (P00915 whole entry): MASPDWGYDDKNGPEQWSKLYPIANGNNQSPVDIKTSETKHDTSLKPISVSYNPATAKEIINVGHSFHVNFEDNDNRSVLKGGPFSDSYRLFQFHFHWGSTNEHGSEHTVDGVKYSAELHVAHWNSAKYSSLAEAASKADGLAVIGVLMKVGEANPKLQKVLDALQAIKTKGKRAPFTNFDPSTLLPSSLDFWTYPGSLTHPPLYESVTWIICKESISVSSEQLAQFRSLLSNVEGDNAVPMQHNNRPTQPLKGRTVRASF
ASSAY REMARKS: SYPRO Orange DSF, isothermal analysis, carbonic anhydrase h-CA I
EXPERIMENTAL ENDPOINT: EC50 (nM)
Answers are plain numbers, in nM.

Please list EC50 recorded for the compound NS(=O)(=O)C(F)(F)F [TFMSA, trifluoromethanesulfonamide]
1400
